Data provenance: patent US7915291B2

So I've got a bunch of compounds here, and I need their pEC50 values.
# System: HCV replicon in Huh7 cells
# protocol.summary: HCV replicon cell-based assay
# Parameters: species or system HCV strain 1B
# study.conditions: Hepatitis C virus, Huh-7; HCV replicon, Huh7 cells; read-out: EC50 range
pEC50: −log10 of the molar value.

Query: Return reported pEC50; argument: "C=C[C@@H]1C[C@]1(NC(=O)[C@@H]1C[C@@H](Oc2ccnc3cc(OC)ccc23)CN1C(=O)[C@@H](NC(=O)OC(C)(C)C)C(C)(C)C)C(=O)NS(=O)(=O)C1CC1"
Result: > 7.00

Query: Same for C=CC1C[C@]1(NC(=O)[C@@H]1C[C@@H](Oc2nccc(-c3ccccc3)n2)CN1C(=O)[C@@H](NC(=O)OC)C(C)(C)C)C(=O)NS(=O)(=O)C1CC1 (stereo partly drawn)
Result: 5.00 to 6.00

Query: Same for "C=C[C@@H]1C[C@]1(NC(=O)[C@@H]1C[C@@H](Oc2nccc3ccc(OC)cc23)CN1C(=O)[C@@H](NC(=O)OC(C)(C)C)C(C)(C)C)C(=O)NS(=O)(=O)C1CC1"
Result: 6.00 to 7.00

* * *

# Test system: HCV replicon in Huh7 cells
# protocol.summary: HCV replicon cell-based assay
# Design: species or system HCV strain 1B
# study.conditions: Hepatitis C virus, Huh-7; HCV replicon, Huh7 cells; read-out: EC50 range
pEC50: −log10 of the molar value.
So I've got a bunch of compounds here, and I need their pEC50 values.

Query: Return reported pEC50; argument: "CC[C@@H]1C[C@]1(NC(=O)[C@@H]1C[C@@H](Oc2nccc3c(OC)cccc23)CN1C(=O)[C@@H](NC(=O)OC(C)(C)C)C(C)(C)C)C(=O)NS(=O)(=O)C1CC1"
Result: 6.00 to 7.00

Query: Same for C=CC1CC1(NC(=O)C1CC(Oc2nc(C3CC3)nc3cc(OC)c(OC)cc23)CN1C(=O)[C@@H](NC(=O)OC(C)(C)C)C(C)(C)C)C(=O)NS(=O)(=O)C(C)C (mixture of isomers)
Result: 5.00 to 6.00

Query: Same for "C=C[C@@H]1C[C@]1(NC(=O)[C@@H]1C[C@@H](Oc2cc3c(Cl)nccc3cc2OC)CN1C(=O)[C@@H](NC(=O)OC(C)(C)C)C(C)(C)C)C(=O)NS(=O)(=O)C1CC1"
Result: > 7.00

Query: Same for "C=C[C@@H]1C[C@]1(NC(=O)[C@@H]1C[C@@H](Oc2ncc(C)c3ccccc23)CN1C(=O)[C@@H](NC(=O)OC(C)(C)C)C(C)(C)C)C(=O)NS(=O)(=O)C1CC1"
Result: > 7.00

Query: Same for "C=C[C@@H]1C[C@]1(NC(=O)[C@@H]1C[C@@H](Oc2nccc3c4c(ccc23)CCO4)CN1C(=O)[C@@H](NC(=O)OC(C)(C)C)C(C)(C)C)C(=O)NS(=O)(=O)C1CC1"
Result: > 7.00

Query: Same for C=CC1C[C@]1(NC(=O)[C@@H]1C[C@@H](Oc2nc(-c3ccccc3N(C)C)cc3cc(OC)ccc23)CN1C(=O)[C@@H](NC(=O)OC(C)(C)C)C(C)(C)C)C(=O)NS(=O)(=O)C1CC1 (stereo partly shown)
Result: > 7.00

Query: Same for C=C[C@@H]1CC1(NC(=O)[C@@H]1CC(Oc2nccc3cc(OC)ccc23)CN1C(=O)[C@@H](NC(=O)NC(C)(C)C)C(C)(C)C)C(=O)NS(=O)(=O)C1CC1 (stereo partly shown)
Result: > 7.00

Query: Same for "C=C[C@@H]1C[C@]1(NC(=O)[C@@H]1C[C@@H](Oc2nccc3ccccc23)CN1C(=O)[C@@H](NC(=O)[C@@H]1COc2ccccc2O1)C(C)(C)C)C(=O)NS(=O)(=O)C1CC1"
Result: 5.00 to 6.00

Query: Same for C=C[C@@H]1C[C@]1(NC(=O)[C@@H]1CC(Oc2nccc3cc(OC)ccc23)CN1C(=O)[C@@H](NC(=O)OC(C)(C)CC)C(C)(C)C)C(=O)NS(=O)(=O)C1CC1 (stereo partly shown)
Result: > 7.00

Query: Same for "C=C[C@@H]1C[C@]1(NC(=O)[C@@H]1C[C@@H](Oc2nc(-c3ncc(OC)o3)cc3cc(OC)ccc23)CN1C(=O)[C@@H](NC(=O)OC(C)(C)C)C(C)(C)C)C(=O)NS(=O)(=O)C1CC1"
Result: > 7.00
